Data credit: ChEMBL document CHEMBL3352564

Catalogue of MIC readings, one per entry.
- Test system: Pseudomonas aeruginosa
- assay.summary: Antimicrobial activity against Pseudomonas aeruginosa PAO1 ARC545 by CLSI dilution method
- Format: functional
Give just the numeric value; µM need not be written.

Here's what some known entries look like.
> print(dat)
                                   compound       target.under.test  unit.label  data.value
1  CN1CCN(Cc2ccc(C#Cc3ccc(OCC4(C(=O)NO)CCOCC4)cc3)cc2)CC1  Pseudomonas aeruginosa          µM         100
2    O=C(NO)C1(COc2ccc(-c3ccccc3)cc2)CCOCC1  Pseudomonas aeruginosa          µM         100
3  O=C(NO)C1(COc2ccc(C#Cc3ccc(CN4CCN(CCn5ccnc5)CC4)cc3)cc2)CCOCC1  Pseudomonas aeruginosa          µM          50

Please turn your attention to the following entry.
Problem: GET /values?readout=MIC&system=Pseudomonas aeruginosa&item= O=C(NO)C1(C[S+]([O-])c2ccc(C#Cc3ccc(CN4CCOCC4)cc3)cc2)CCOCC1 (racemic)
Result: 25
